Recorded values, source patent US20200270309A1.

System: choroidal neovascularization
assay.comment: Choroidal neovascularization in rats (laser photocoagulation, FFA)
Format: in vivo
conditions.used: day 3 after administration, total light spot number was 297, 0.05 μM in the vitreous chamber once a day for 1 week, BN rats
Peptide text beside a SMILES is read from it. * marks the point of attachment. X64 = O=C1C=CC(=O)N1c1cccc(CCCCCCCCCC(=O)*)c1; X68 = O=C1C=CC(=O)N1c1ccccc1CCCCCCCCCCCC(=O)*
Recorded measurements of Leakage Light spot number, one per entry
// no unit, no text: just the number

| compound | Leakage Light spot number |
| --- | --- |
| C[C@H](NC(=O)CNC(=O)[C@H](CCCNC(=N)N)NC(=O)CCCCCCCCCc1cccc(N2C(=O)C=CC2=O)c1)C(=O)N[C@@H](CC(=O)O)C(=O)N[C@@H](CCCNC(=N)N)C(=O)N[C@@H](C)C(=O)NCC(=O)NCC(=O)NCC(=O)NCC(=O)N[C@@H](CCCNC(=N)N)C(=O)NCC(=O)N[C@@H](CC(=O)O)C(=O)O [X33] (X64-RGADRAGGGGRGD-OH) | 161 |

Next item in the queue.
Any idea what its Leakage Light spot number is? The compound is C[C@H](NC(=O)CNC(=O)[C@H](CCCNC(=N)N)NC(=O)CCCCCCCCCCCc1ccccc1N1C(=O)C=CC1=O)C(=O)N[C@@H](CC(=O)O)C(=O)N[C@@H](CCCNC(=N)N)C(=O)N[C@@H](C)C(=O)NCC(=O)NCC(=O)NCC(=O)NCC(=O)N[C@@H](CCCNC(=N)N)C(=O)NCC(=O)N[C@@H](CC(=O)O)C(=O)O [X23] (X68-RGADRAGGGGRGD-OH)
157

----------
assay.comment: Half-lives and pharmacokinetic parameters of polypeptides vs HM-1
conditions.used: in vivo, T1/2β (half-life)
Peptide text beside a SMILES is read from it. * marks the point of attachment. X26 = O=C1C=CC(=O)N1CCOCCOCCOCCOCCOCCCCC(=O)*; X35 = O=C1C=CC(=O)N1CCOCCOCCOCCOCC(=O)*; X50 = O=C1C=CC(=O)N1c1ccc(CC(=O)*)cc1
measurement.kind: half-life

Worked cases, answers included:
| molecule | half-life |
| --- | --- |
| C[C@H](NC(=O)CNC(=O)[C@H](CCCNC(=N)N)NC(=O)CCCCOCCOCCOCCOCCOCCN1C(=O)C=CC1=O)C(=O)N[C@@H](CC(=O)O)C(=O)N[C@@H](CCCNC(=N)N)C(=O)N[C@@H](C)C(=O)NCC(=O)NCC(=O)NCC(=O)NCC(=O)N[C@@H](CCCNC(=N)N)C(=O)NCC(=O)N[C@@H](CC(=O)O)C(=O)O [X80] (X26-RGADRAGGGGRGD-OH) | 42.7 h |
| C[C@H](NC(=O)CNC(=O)[C@H](CCCNC(=N)N)NC(=O)Cc1ccc(N2C(=O)C=CC2=O)cc1)C(=O)N[C@@H](CC(=O)O)C(=O)N[C@@H](CCCNC(=N)N)C(=O)N[C@@H](C)C(=O)NCC(=O)NCC(=O)NCC(=O)NCC(=O)N[C@@H](CCCNC(=N)N)C(=O)NCC(=O)N[C@@H](CC(=O)O)C(=O)O [X37] (X50-RGADRAGGGGRGD-OH) | 33.8 h |

Could you tell me which half-life is on file for C[C@H](NC(=O)CNC(=O)[C@H](CCCNC(=N)N)NC(=O)COCCOCCOCCOCCN1C(=O)C=CC1=O)C(=O)N[C@@H](CC(=O)O)C(=O)N[C@@H](CCCNC(=N)N)C(=O)N[C@@H](C)C(=O)NCC(=O)NCC(=O)NCC(=O)NCC(=O)N[C@@H](CCCNC(=N)N)C(=O)NCC(=O)N[C@@H](CC(=O)O)C(=O)O [X70] (X35-RGADRAGGGGRGD-OH) ?
34.8 h
